Parameter: collision cross section (N2). Scope: all listed entries.
conditions_used: [M+H]+; instrument: TW; Major Mix IMS/Tof Calibration Kit (Waters)
Express the result in Å² but write the number alone.

>  <molecule>
CN1CC(=O)N2[C@H](c3ccc4c(c3)OCO4)c3[nH]c4ccccc4c3C[C@@H]2C1=O

>  <collision cross section (N2) [Å²]>
189.4

$$$$
>  <molecule>
C[C@]12C[C@@H]3C[C@](C)(C1)C[C@@](N)(C3)C2 [Memantine]

>  <collision cross section (N2) [Å²]>
146.6

$$$$
>  <molecule>
Cc1nc2n(c(=O)c1CCN1CCC(c3noc4cc(F)ccc34)CC1)CCCC2O (stereo unspecified) [Risperidone-M 9-hydroxy]

>  <collision cross section (N2) [Å²]>
209.9

$$$$
>  <molecule>
CCN(CC)CCN1C(=O)CN=C(c2ccccc2F)c2cc(Cl)ccc21

>  <collision cross section (N2) [Å²]>
185.3

$$$$
>  <molecule>
CC(=O)CC(c1ccccc1)c1c(O)c2ccccc2oc1=O (stereo unspecified)

>  <collision cross section (N2) [Å²]>
166.8

$$$$

Quick note, collision cross section (N2) for "CN1CC[C@]23c4c5ccc(O)c4O[C@H]2C(=O)CC[C@@]3(O)[C@H]1C5" landed at 164.6

---

conditions_used: [M+H]+; instrument: DT; single field, calibrated with Agilent tune mix (Agilent)
Parameter: collision cross section (N2). Scope: all listed entries.
Express the result in Å² but write the number alone.

Reference set (4 entries):
>  <molecule>
CCCCCCCCCCCCC=CC[C@@H](O)[C@H](COP(=O)([O-])OCC[N+](C)(C)C)NC(=O)CCCCCCCCCCCCCCCCCC [SM(37:1)]

>  <collision cross section (N2) (Å²)>
290.8

$$$$
>  <molecule>
CCCCCCCCCCCCC=CC[C@@H](O)[C@H](CO[C@@H]1O[C@H](CO)[C@@H](O)C(O)C1O)NC(=O)CCCCCCCCCCCCCCCCCCCCCC (some centres not stated) [GlcCer(41:1)]

>  <collision cross section (N2) (Å²)>
298.5

$$$$
>  <molecule>
CCCCCCCCCCCCC=CC[C@@H](O)[C@H](CO)NC(=O)CCCCCCCCCCCCCCCCCCCCCC [Cer(41:1)]

>  <collision cross section (N2) (Å²)>
275.6

$$$$
>  <molecule>
CCCCC/C=C\C/C=C\C/C=C\C/C=C\CCCCCC(=O)O[C@H](COC(=O)CCCCCCC/C=C\CCCCCCCC)COP(=O)([O-])OCC[N+](C)(C)C [PC(40:5)]

>  <collision cross section (N2) (Å²)>
298.8

$$$$

Quick note, collision cross section (N2) for CCCCC/C=C\C/C=C\CCCCCCCCCC(=O)O[C@H](COC(=O)CCCCCCCCC/C=C\CCCCCC)COP(=O)([O-])OCC[N+](C)(C)C [PC(38:3)] landed at 295

Quick note, collision cross section (N2) for CCCCCCCCCCCCCCC[C@@H](O)[C@H](COP(=O)([O-])OCC[N+](C)(C)C)NC(=O)CCCCCCCCCCCCC [SM(32:0)] landed at 278.5

Quick note, collision cross section (N2) for CC/C=C\C/C=C\C/C=C\C/C=C\C/C=C\C/C=C\CCC(=O)O[C@H](CO/C=C\CCCCCCCCCCCCCC)COP(=O)(O)OCCN [PE(p38:6)] landed at 278

Quick note, collision cross section (N2) for CCCCCCCCCCCCC=CC[C@@H](O)[C@H](COP(=O)([O-])OCC[N+](C)(C)C)NC(=O)CC=CCC=CCCCCCCCCCCCCCCC [SM(40:3)] landed at 294.6

Quick note, collision cross section (N2) for CCCCCCCCCCCCC=CC[C@@H](O)[C@H](CO)NC(=O)CCCCCCCCCCCCCCCCCCC [Cer(38:1)] landed at 267.3

Quick note, collision cross section (N2) for CCCCCCCCCCCCC=CC[C@@H](O)[C@H](CO[C@@H]1O[C@H](CO)[C@@H](O)C(O)C1O)NC(=O)CCCCCCCCCCCCCCCCCCCCCCCCC (some centres not stated) [GlcCer(44:1)] landed at 307.2

Quick note, collision cross section (N2) for CCCCCCC/C=C\CCCCCCCC(=O)OC[C@H](COP(=O)([O-])OCC[N+](C)(C)C)OC(=O)CCCCCCC/C=C\CCCCCCCC [PC(35:2)] landed at 286.4

Quick note, collision cross section (N2) for CC/C=C\C/C=C\C/C=C\C/C=C\CCCCC(=O)OC[C@H](COP(=O)(O)O[C@H]1C(O)C(O)C(O)[C@@H](O)C1O)OC(=O)CCCCCCCCC/C=C\CCCCCCCCCC (some centres not stated) [PI(40:5)] landed at 307.1

Data credit: the C3SDB collision cross section collection
